Cited source for all entries: patent US6723841B2

Target: human CRF1 receptor (Homo sapiens)
Construct: expressed in transfected cells
Sequence (P34998 24-415): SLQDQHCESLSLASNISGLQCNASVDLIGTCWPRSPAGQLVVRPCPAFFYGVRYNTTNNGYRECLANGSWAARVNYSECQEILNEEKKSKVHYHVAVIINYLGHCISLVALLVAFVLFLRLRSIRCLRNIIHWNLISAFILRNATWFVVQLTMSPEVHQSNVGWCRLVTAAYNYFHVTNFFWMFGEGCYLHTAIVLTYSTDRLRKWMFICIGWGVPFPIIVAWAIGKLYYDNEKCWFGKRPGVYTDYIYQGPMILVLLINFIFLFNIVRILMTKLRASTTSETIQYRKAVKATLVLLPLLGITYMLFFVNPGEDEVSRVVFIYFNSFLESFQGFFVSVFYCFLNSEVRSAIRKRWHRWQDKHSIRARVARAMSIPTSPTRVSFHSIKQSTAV
Assay: cAMP assay (adenylate cyclase stimulation) in cells transfected with CRF1 receptor
Type: cell-based
Conditions: transfected cells, cAMP production; read-out: effective concentration of one-half maximal adenylate cyclase stimulation (EC50), human CRF1 receptor
Ends that are not written are not given here.
readout kind: EC50

**Q:** So what's the measured EC50 for this one? ISLDLTFHLLREVLEMARAEQLAQQAHS [r/hCRF(6-33)]
**A:** > 1000 nM
